- Run Description: yeast display, Sf9 membrane polyspecificity reagent, FACS + sequencing; frameworks hold sequencing errors

{"columns": ["Sequence Chain", "polyreactivity (PSR sort gate)"],
 "data": [
  ["QVQLEESGGGLVQAGGSLRLSCAASGRTFGSNAMGWYRQAPGKERELVAAIRERGGSTYADSVKGRFTISRDNAKNTVYLQMNSLKPEDTAVYYCAADRSVIWSKNYDYWGQGTQVTVSS", "low polyreactivity"],
  ["QVQLVESGGGLVQAGGSLRLAVLPPDLPSTLNDMGWYRQAPGKERELVAAITRGGSTNYADSVKGRFTISRDNAKNTVYLEMNSLKPEDTAVYYCAAPYAGWRDGGDYWGQGTQVTVSS", "low polyreactivity"],
  ["QVQLVESGGGLVQAGGSLRLSCAASGIFTYTMGWYRQAPGKERELVAAITNGSTYYADSVKGRFTISRDNAKNTVYLQMNSLKPEDTAVYYCAADRSSAYRWRSAGYYKYDYWGQGTQVTVSS", "low polyreactivity"],
  ["QVQLVESGGGLVQAGGSLRLSCAASGGIFSYAMGWYRQAPGKERELVADINSDGSTTYADSVKGRFTISRDNAKNTVYLQMNSLKPEDTAVYYCAVDVSVNWPLLERYEYWGQGTQVTVSS", "low polyreactivity"],
  ["QVQLVESGGGLVQAGGSLRLSCAASGRISTYYTMGWYRQAPGKERELVAAISWSGTSTYYADSVKGRFTISRDNAKNTVYLQMNSLKPEDTAVYYCNARWRYPLDSVTDDYWGQGTQVTVSS", "high polyreactivity"],
  ["QVQLVESGGGLVQSGASLRLSCAASGLIIGLYALGWYRQAPGKERELVAAISDNGARTYYADSVKGRFTISRDNAKNTVYLQMNSLKPEDTAVYYCARDQSYHYNYWGQGTQVTVSS", "low polyreactivity"],
  ["QVQLVESGGGLVQAGGSLRLSCAASGFSVYPYAMGWYRQAPGKERELVAAISSSGGSTYYADSVKGRFTISRDNAKNTVYLQMNSLKPEDTAVYYCNKRPQQYRPGYDYWGQGTQVTVSS", "high polyreactivity"],
  ["QVQLVESGGGLVQAGGSLRLSCAASGSIFSHNVMVWYRQAPGKERELVAAISGGGGRTYYADSVKGRFTISRDNAKNTVYLQMNSLKAEDTAVYYCNAYVGLSEGDYWGQGTQVSVSS", "high polyreactivity"],
  ["QVQLVESGGGLVQAGGSLRLSCAASGSIFRVYAMGWYRQAPGKVRELVAVISIAGRTNYADSVKGRFTISRDNAKNTVYLQMNSLKPEDTAVYYCNAEWDLNHLYDSWGQGTQETVSS", "low polyreactivity"],
  ["QVQLQESGGGLVQAGGSLRLSCAASGTISQEDWMGWYRQAPGKEREFVAAIGLGSNTNYADSLKGRFTISRDNAKKTVYLQMNSLKPEDTAVYYCAVSVWQYSDHVYRGQGTQVTVSS", "low polyreactivity"],
  ["QVQLVESGGGLVQAGGSLRLTCAASGLTFTYYAMGWYRQAPGKERELVAAISASGGNTYYADSVKGRFTISRDNAKNTVYLQMNSLKPEDTAVFYCAAESSIYRGYGYSGQGTQVTVSS", "high polyreactivity"],
  ["QVQLVESGGGLVQAGGSLRLSCAASGITIRLYAKGWYRQAPGKERELVAGISSGGSTYYADSVKGRFTISRDNAKNTFYLQMNSLKPEDTAVYYCAAVSYGRRRPQHFEYWGQGTQVTVSS", "high polyreactivity"],
  ["QVLLQESGGGLVQAGGSLRLCCAASGYISGDQIMGWYRQAPGKDREFVAGIGNGTNTNYADSVKGRFTTSRDNAKNTVYLQMNSLNPEDTAVYYCPADPSDGSTLAYWGQGTQVTVSS", "high polyreactivity"],
  ["QVQLVESGGGLVQAGGSLRLSCAASGITFYRYMGWYRQAPGKERELVASITGRGGSTYYADSVKGRFTISRDNAKNTVYLQMNSLKPEDTAVYYCAARSYARPGGSRFDYWGQGTQVTVSS", "high polyreactivity"],
  ["QVQLVESGGGLVQAGGTLRLSCAACGFTFSSYAMGWYRQAPGKERELVAAITYRGGSTYYADSVKGRFTISRDNAMNNVYLQMNSLKPEDTAVYYCAARWGYRMYWGQGTQVTVSS", "high polyreactivity"],
  ["QVQLVDSGGGLVPAGGSLRLSCAASGFTFTRYVMGWYRQAPGKERELVAAISGSGGSTNYADSVKGRFTISRDNAKNTVYLQMNSLKPEDTAVYYCAVGYRGWDGYWGQGTQVTVSS", "high polyreactivity"],
  ["QVQLVESGGGLVQAGGSLRLSCAASGSIFYGYAMGWYRQAPGKERELVAAITWIDGSTYYADSVKGRFTISRDNAKNPVFLQLTSLKPEDTAVYYCAAGGYFYSFYYWGQGTQVTVSS", "low polyreactivity"],
  ["QVQLVESGGGLVQAGGSLRLSCAASGITFIWYAMGWYRQAPGKERELVAAISTSGGSTYYADSVKGRFTISRDNAKNTVYLQMNSLKPEDTAVYYCAAVSGGVSRSYDRYYWGQGTQVTVSS", "high polyreactivity"],
  ["QVQLVESGGGLVQAGGSLRLSCAASGSIFDDYAMGWYRQSPGQERELVAAISWSGGSTYYADSVKGRFTISRDNAKNTDYLQMNSLKPDDTAVYYCAGYDYDYLYGEYYWGQGTQVTVSS", "low polyreactivity"],
  ["QVQLVESGGGLVQAGGSLRLSCAASGRIFYPYAMGWYRQAPGKERELVAAITWSGGSTYYADSVKGRFTISRDNAKNTVYLQMNSLKPEDTAVYYCAKDHSYGAYYYWGQGTQVTVSS", "high polyreactivity"],
  ["QVQLVESGGGVVQAGGSLRLSCAASGSTLRDYVMGWYRQAPGKERELVAAITSRVDDTYYADSVKGRFTISRDNAKNNVYLEMNRLKPEDTAVYYCAADYSVTLRIGGYYWFYAFDYWGQGTQVTVSS", "low polyreactivity"]
]}
